- ASSAY_REMARKS: Selectivity ratio of Ki for TTK to Ki for LRRK2
ASSAY_METRIC: Ratio Ki
Lab note: record the figure alone, no unit after it.

Task: Given the entry "CNc1nc(Nc2cc(F)c(C(=O)N3CCOCC3)cc2OC)ncc1C(F)(F)F" , report its measured Ratio Ki.
Result: 62

Task: Same again, this time with "CNc1nc(Nc2cc(F)c(S(C)(=O)=O)cc2OC)ncc1C(F)(F)F"
Result: 27

Task: Same again, this time with "CNc1nc(Nc2cc(C)c(C(=O)N3CCOCC3)cc2Cl)ncc1C(F)(F)F"
Result: 78

Task: Same again, this time with "CCNc1nc(Nc2cc(F)c(C(=O)NCC(C)(C)O)cc2OC)ncc1C(F)(F)F"
Result: 43

Task: Same again, this time with "CCNc1nc(Nc2cc(F)c(C(=O)N3CCOCC3)cc2OC)ncc1C(F)(F)F"
Result: 53

---

- ASSAY_REMARKS: Selectivity ratio of Ki for JAK2 to Ki for LRRK2
ASSAY_METRIC: Ratio Ki

Task: Given the entry "CCNc1nc(Nc2cc(F)c(C(=O)N3CCOCC3)cc2OC)ncc1C(F)(F)F" , report its measured Ratio Ki.
Result: > 3200

Task: Same again, this time with "CNc1nc(Nc2ccc(C(=O)N3CCOCC3)cc2OC)ncc1F"
Result: > 55

Task: Same again, this time with "CNc1nc(Nc2cc(OC)c(C(=O)N3CCOCC3)cc2F)ncc1C(F)(F)F"
Result: 189

Task: Same again, this time with "CNc1nc(Nc2ccc(C(=O)N3CCOCC3)cc2OC)ncc1C(F)(F)F"
Result: > 1930

Task: Same again, this time with "COc1cc(C(=O)N2CCOCC2)ccc1Nc1ncc(Cl)c(OC)n1"
Result: > 360

Task: Same again, this time with "CCNc1nc(Nc2cc(OC)c(C(=O)N3CCOCC3)cc2Cl)ncc1C(F)(F)F"
Result: > 1100

Task: Same again, this time with "CNc1nc(Nc2cc(C)c(C(=O)N3CCOCC3)cc2Cl)ncc1C(F)(F)F"
Result: > 489

---

Give CLhep predicted for every item shown.
- ASSAY_REMARKS: Clearance in human hepatocytes
- Assay type: ADME, cell-based, Liver, Hepatocyte
Provide the reading as a plain figure in mL/min/kg.

Task: Given the entry "[2H]C1([2H])OC([2H])([2H])C([2H])([2H])N(C(=O)c2cc(Cl)c(Nc3ncc(C(F)(F)F)c(NCC)n3)cc2OC)C1([2H])[2H]" , report its measured CLhep predicted.
Result: 5.7

Task: Same again, this time with "CCNc1nc(Nc2cc(OC)c(C(=O)N3CCOCC3)cc2Cl)ncc1C(F)(F)F"
Result: 0.9

Task: Same again, this time with "CNc1nc(Nc2ccc(C(=O)N3CCOCC3)cc2OC)ncc1Cl"
Result: 4.9

Task: Same again, this time with "COc1cc(C(=O)N2CCOCC2)ccc1Nc1ncc(Br)c(OC)n1"
Result: 12

Task: Same again, this time with "CCNc1nc(Nc2cc(F)c(C(=O)N3CCOCC3)cc2OC)ncc1C(F)(F)F"
Result: 3.2

---

- SUBJECT_OF_TEST: Leucine-rich repeat serine/threonine-protein kinase 2 (Homo sapiens, UniProt Q5S007)
- Sequence (Q5S007 whole entry): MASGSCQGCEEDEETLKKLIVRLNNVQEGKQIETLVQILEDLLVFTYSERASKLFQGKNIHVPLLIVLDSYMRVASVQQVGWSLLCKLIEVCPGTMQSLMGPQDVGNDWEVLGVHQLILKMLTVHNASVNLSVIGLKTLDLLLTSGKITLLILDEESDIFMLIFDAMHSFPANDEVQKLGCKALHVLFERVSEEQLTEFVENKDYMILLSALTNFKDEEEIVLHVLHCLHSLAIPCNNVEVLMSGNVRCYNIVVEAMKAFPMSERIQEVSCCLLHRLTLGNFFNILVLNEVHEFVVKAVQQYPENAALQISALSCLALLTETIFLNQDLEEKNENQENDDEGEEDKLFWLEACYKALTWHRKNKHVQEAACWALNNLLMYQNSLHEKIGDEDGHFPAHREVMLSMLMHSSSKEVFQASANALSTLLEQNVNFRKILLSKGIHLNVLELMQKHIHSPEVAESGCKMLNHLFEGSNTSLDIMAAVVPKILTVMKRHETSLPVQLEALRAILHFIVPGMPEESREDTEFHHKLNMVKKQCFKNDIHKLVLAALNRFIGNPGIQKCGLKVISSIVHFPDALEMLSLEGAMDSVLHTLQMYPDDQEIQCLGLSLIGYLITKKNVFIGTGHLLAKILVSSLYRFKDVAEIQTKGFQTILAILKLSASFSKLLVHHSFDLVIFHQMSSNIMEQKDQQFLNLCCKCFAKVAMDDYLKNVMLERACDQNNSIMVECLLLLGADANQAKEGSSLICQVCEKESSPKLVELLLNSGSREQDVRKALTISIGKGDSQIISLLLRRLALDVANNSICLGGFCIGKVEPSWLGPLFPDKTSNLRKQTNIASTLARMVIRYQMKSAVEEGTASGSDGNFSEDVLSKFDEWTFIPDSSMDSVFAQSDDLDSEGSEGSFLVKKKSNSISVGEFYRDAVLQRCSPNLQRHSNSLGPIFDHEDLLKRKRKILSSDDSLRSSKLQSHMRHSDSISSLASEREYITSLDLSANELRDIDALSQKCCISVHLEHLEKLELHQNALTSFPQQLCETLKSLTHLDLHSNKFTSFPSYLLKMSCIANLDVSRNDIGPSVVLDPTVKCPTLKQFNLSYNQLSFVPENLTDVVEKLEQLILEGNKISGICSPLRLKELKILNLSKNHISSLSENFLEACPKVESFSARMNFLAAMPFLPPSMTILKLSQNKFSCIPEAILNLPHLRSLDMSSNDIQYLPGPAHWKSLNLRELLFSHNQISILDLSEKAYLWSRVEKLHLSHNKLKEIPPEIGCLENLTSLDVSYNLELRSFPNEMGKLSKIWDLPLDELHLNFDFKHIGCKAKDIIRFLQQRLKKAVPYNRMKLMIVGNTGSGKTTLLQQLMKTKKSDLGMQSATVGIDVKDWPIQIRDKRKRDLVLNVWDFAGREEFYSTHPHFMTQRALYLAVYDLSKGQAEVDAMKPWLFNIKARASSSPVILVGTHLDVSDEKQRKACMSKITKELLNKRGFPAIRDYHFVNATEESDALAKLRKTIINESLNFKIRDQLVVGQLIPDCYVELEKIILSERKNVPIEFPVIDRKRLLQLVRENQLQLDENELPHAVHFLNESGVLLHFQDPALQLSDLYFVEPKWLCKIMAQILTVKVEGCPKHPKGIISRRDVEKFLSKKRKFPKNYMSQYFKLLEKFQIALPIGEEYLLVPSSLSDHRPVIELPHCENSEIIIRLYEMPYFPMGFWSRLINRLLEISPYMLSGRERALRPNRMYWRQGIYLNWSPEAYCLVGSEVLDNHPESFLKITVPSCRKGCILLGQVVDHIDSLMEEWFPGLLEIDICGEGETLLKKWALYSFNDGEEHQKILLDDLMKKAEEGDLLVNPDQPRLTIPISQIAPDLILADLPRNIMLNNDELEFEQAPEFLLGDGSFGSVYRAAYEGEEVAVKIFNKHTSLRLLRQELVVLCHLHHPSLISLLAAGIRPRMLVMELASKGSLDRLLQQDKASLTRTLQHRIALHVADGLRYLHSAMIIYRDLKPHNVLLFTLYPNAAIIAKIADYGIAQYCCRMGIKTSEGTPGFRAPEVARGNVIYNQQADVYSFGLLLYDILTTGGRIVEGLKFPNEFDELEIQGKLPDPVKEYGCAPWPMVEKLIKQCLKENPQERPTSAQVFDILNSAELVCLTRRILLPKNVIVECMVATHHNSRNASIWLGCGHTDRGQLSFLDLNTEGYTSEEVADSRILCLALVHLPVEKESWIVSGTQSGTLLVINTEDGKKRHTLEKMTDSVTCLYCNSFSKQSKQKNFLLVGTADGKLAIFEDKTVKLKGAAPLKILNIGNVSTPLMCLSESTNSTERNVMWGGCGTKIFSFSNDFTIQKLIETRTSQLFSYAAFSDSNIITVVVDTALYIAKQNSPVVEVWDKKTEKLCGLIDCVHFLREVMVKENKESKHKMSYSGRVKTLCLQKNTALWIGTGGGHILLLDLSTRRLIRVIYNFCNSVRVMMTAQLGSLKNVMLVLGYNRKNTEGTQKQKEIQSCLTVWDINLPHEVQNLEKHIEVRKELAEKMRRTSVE
Label key: t means Ki under 4 nM; f means Ki of 4 nM or more.

Task: Ki under 4 nM? Item: "CNc1nc(Nc2ccc(C(=O)N3CCOCC3)c(F)c2OC)ncc1C(F)(F)F"
Result: f

Task: Same again, this time with "CCNc1nc(Nc2cnc(C(=O)N3CCOCC3)cc2OC)ncc1C(F)(F)F"
Result: t

Task: Same again, this time with "COc1cc(C(=O)N2CCOCC2)ccc1Nc1ncc(Br)c(OC)n1"
Result: f

Task: Same again, this time with "CNc1nc(Nc2cc(F)c(C(=O)N3CCOCC3)cc2OC)ncc1C(F)(F)F"
Result: f
